# statedConditions: in ethanol, 305.65 K
measuredParameter: solubility (mole fraction)
Respond with the number and no other words.

Inquiry: What value of measured solubility (mole fraction) is listed for CN(C/C=C/C#CC(C)(C)C)Cc1cccc2ccccc12.Cl ?
Reply text: 0.0326

---

# statedConditions: in methanol, 308.15 K
measuredParameter: solubility (mole fraction)
Respond with the number and no other words.

Inquiry: What value of measured solubility (mole fraction) is listed for CN(C/C=C/C#CC(C)(C)C)Cc1cccc2ccccc12.Cl ?
Reply text: 0.059

---

# statedConditions: in ethanol, 300.65 K
measuredParameter: solubility (mole fraction)

Inquiry: What value of measured solubility (mole fraction) is listed for CN(C/C=C/C#CC(C)(C)C)Cc1cccc2ccccc12.Cl ?
Reply text: 0.0293

---

# statedConditions: in ethanol, 278.15 K
measuredParameter: solubility (mole fraction)
Respond with the number and no other words.

Inquiry: What value of measured solubility (mole fraction) is listed for CN(C/C=C/C#CC(C)(C)C)Cc1cccc2ccccc12.Cl ?
Reply text: 0.0187

---

# statedConditions: in ethanol, 293.15 K
measuredParameter: solubility (mole fraction)
Respond with the number and no other words.

Inquiry: What value of measured solubility (mole fraction) is listed for CN(C/C=C/C#CC(C)(C)C)Cc1cccc2ccccc12.Cl ?
Reply text: 0.0254

---

# statedConditions: in n-propanol, 300.65 K
measuredParameter: solubility (mole fraction)
Respond with the number and no other words.

Inquiry: What value of measured solubility (mole fraction) is listed for CN(C/C=C/C#CC(C)(C)C)Cc1cccc2ccccc12.Cl ?
Reply text: 0.0254

---

# statedConditions: in methanol, 283.15 K
measuredParameter: solubility (mole fraction)
Respond with the number and no other words.

Inquiry: What value of measured solubility (mole fraction) is listed for CN(C/C=C/C#CC(C)(C)C)Cc1cccc2ccccc12.Cl ?
Reply text: 0.0424

---

# statedConditions: in ethanol, 303.15 K
measuredParameter: solubility (mole fraction)
Respond with the number and no other words.

Inquiry: What value of measured solubility (mole fraction) is listed for CN(C/C=C/C#CC(C)(C)C)Cc1cccc2ccccc12.Cl ?
Reply text: 0.0309

---

# statedConditions: in methanol, 293.15 K
measuredParameter: solubility (mole fraction)
Respond with the number and no other words.

Inquiry: What value of measured solubility (mole fraction) is listed for CN(C/C=C/C#CC(C)(C)C)Cc1cccc2ccccc12.Cl ?
Reply text: 0.0486

---

# statedConditions: in ethanol, 283.15 K
measuredParameter: solubility (mole fraction)

Inquiry: What value of measured solubility (mole fraction) is listed for CN(C/C=C/C#CC(C)(C)C)Cc1cccc2ccccc12.Cl ?
Reply text: 0.0207

---

# statedConditions: in ethyl acetate, 295.65 K
measuredParameter: solubility (mole fraction)
Respond with the number and no other words.

Inquiry: What value of measured solubility (mole fraction) is listed for CN(C/C=C/C#CC(C)(C)C)Cc1cccc2ccccc12.Cl ?
Reply text: 0.00626

---

# statedConditions: in ethanol, 285.65 K
measuredParameter: solubility (mole fraction)
Respond with the number and no other words.

Inquiry: What value of measured solubility (mole fraction) is listed for CN(C/C=C/C#CC(C)(C)C)Cc1cccc2ccccc12.Cl ?
Reply text: 0.0217

---

# statedConditions: in ethyl acetate, 293.15 K
measuredParameter: solubility (mole fraction)
Respond with the number and no other words.

Inquiry: What value of measured solubility (mole fraction) is listed for CN(C/C=C/C#CC(C)(C)C)Cc1cccc2ccccc12.Cl ?
Reply text: 0.00557

---

# statedConditions: in ethanol, 310.65 K
measuredParameter: solubility (mole fraction)
Respond with the number and no other words.

Inquiry: What value of measured solubility (mole fraction) is listed for CN(C/C=C/C#CC(C)(C)C)Cc1cccc2ccccc12.Cl ?
Reply text: 0.036

---

# statedConditions: in ethyl acetate, 300.65 K
measuredParameter: solubility (mole fraction)
Respond with the number and no other words.

Inquiry: What value of measured solubility (mole fraction) is listed for CN(C/C=C/C#CC(C)(C)C)Cc1cccc2ccccc12.Cl ?
Reply text: 0.00821

---

# statedConditions: in methanol, 300.65 K
measuredParameter: solubility (mole fraction)

Inquiry: What value of measured solubility (mole fraction) is listed for CN(C/C=C/C#CC(C)(C)C)Cc1cccc2ccccc12.Cl ?
Reply text: 0.0536

---

# statedConditions: in methanol, 313.15 K
measuredParameter: solubility (mole fraction)
Respond with the number and no other words.

Inquiry: What value of measured solubility (mole fraction) is listed for CN(C/C=C/C#CC(C)(C)C)Cc1cccc2ccccc12.Cl ?
Reply text: 0.063

---

# statedConditions: in methanol, 298.15 K
measuredParameter: solubility (mole fraction)

Inquiry: What value of measured solubility (mole fraction) is listed for CN(C/C=C/C#CC(C)(C)C)Cc1cccc2ccccc12.Cl ?
Reply text: 0.0518

---

# statedConditions: in ethyl acetate, 305.65 K
measuredParameter: solubility (mole fraction)
Respond with the number and no other words.

Inquiry: What value of measured solubility (mole fraction) is listed for CN(C/C=C/C#CC(C)(C)C)Cc1cccc2ccccc12.Cl ?
Reply text: 0.0105

---

# statedConditions: in methanol, 305.65 K
measuredParameter: solubility (mole fraction)
Respond with the number and no other words.

Inquiry: What value of measured solubility (mole fraction) is listed for CN(C/C=C/C#CC(C)(C)C)Cc1cccc2ccccc12.Cl ?
Reply text: 0.0572

---

# statedConditions: in ethanol, 308.15 K
measuredParameter: solubility (mole fraction)
Respond with the number and no other words.

Inquiry: What value of measured solubility (mole fraction) is listed for CN(C/C=C/C#CC(C)(C)C)Cc1cccc2ccccc12.Cl ?
Reply text: 0.0342

---

# statedConditions: in n-propanol, 293.15 K
measuredParameter: solubility (mole fraction)

Inquiry: What value of measured solubility (mole fraction) is listed for CN(C/C=C/C#CC(C)(C)C)Cc1cccc2ccccc12.Cl ?
Reply text: 0.0228

---

# statedConditions: in n-propanol, 303.15 K
measuredParameter: solubility (mole fraction)
Respond with the number and no other words.

Inquiry: What value of measured solubility (mole fraction) is listed for CN(C/C=C/C#CC(C)(C)C)Cc1cccc2ccccc12.Cl ?
Reply text: 0.0262

---

# statedConditions: in n-propanol, 280.65 K
measuredParameter: solubility (mole fraction)
Respond with the number and no other words.

Inquiry: What value of measured solubility (mole fraction) is listed for CN(C/C=C/C#CC(C)(C)C)Cc1cccc2ccccc12.Cl ?
Reply text: 0.0193

---

# statedConditions: in ethanol, 295.65 K
measuredParameter: solubility (mole fraction)
Respond with the number and no other words.

Inquiry: What value of measured solubility (mole fraction) is listed for CN(C/C=C/C#CC(C)(C)C)Cc1cccc2ccccc12.Cl ?
Reply text: 0.0266

---

# statedConditions: in n-propanol, 305.65 K
measuredParameter: solubility (mole fraction)
Respond with the number and no other words.

Inquiry: What value of measured solubility (mole fraction) is listed for CN(C/C=C/C#CC(C)(C)C)Cc1cccc2ccccc12.Cl ?
Reply text: 0.0271

---

# statedConditions: in methanol, 278.15 K
measuredParameter: solubility (mole fraction)
Respond with the number and no other words.

Inquiry: What value of measured solubility (mole fraction) is listed for CN(C/C=C/C#CC(C)(C)C)Cc1cccc2ccccc12.Cl ?
Reply text: 0.0398
